The reported numbers originate from patent US20100221179A1.

tested.system: T1, recombinant human IL-1α (human) (UniProt P01583)
T1 sequence: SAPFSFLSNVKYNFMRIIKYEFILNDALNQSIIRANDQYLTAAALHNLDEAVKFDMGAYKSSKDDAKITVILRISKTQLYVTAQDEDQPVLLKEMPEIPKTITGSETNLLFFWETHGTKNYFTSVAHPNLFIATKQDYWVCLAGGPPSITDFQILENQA
measurement.notes: cell-based or functional assay
parameter: Neutralization Potency (IC50, pM), MRC-5 bioassay (IL-8 production)
Reply numerically in pM, unit not repeated.

See these solved cases before continuing.
binder	unit.text	reported
humanized anti-human IL-1α antibody H3D12.r37 (antibody, from a related filing, human IgG1, V domains shown) VH: EIQLVQSGAEVKKPGASVKVSCKASGYTFKYYGMNWVRQAPGQGLERMGWINTYTGESRYADDFKGRVTFTLDTSTSTAYMELSSLRSEDTAVYYCARDIYYFGSDYAMDYWGQGTTVTVSS VL: DIQMTQSPSSLSASVGDRVTITCRASQDISNRLNWYQQKPGKAPKLLIYYASRLKPGVPSRFSGSGSGTDYTFTISSLQPEDIATYFCQQGNTPPYTFGQGTKLEIK	pM	1.4
humanized anti-human IL-1α antibody H3D12.8 (antibody, from a related filing, human IgG1, V domains shown) VH: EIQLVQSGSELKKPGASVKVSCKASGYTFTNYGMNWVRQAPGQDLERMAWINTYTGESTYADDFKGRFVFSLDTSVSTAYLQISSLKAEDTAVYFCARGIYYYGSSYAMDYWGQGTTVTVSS VL: DIQMTQSPSSLSASVGDRVTITCRASQDISNCLNWYQQKPGKTPKLLIYYTSRLHSGVPSRFSGSGSGTDYTFTISSLQPEDIATYFCQQGKTLPYAFGQGTKLEIK	pM	1950

Please examine the following record next.
Q: Answer with the recorded Neutralization Potency (IC50, pM), MRC-5 bioassay (IL-8 production) of anti-human IL-1α monoclonal antibody 3D12 (antibody, from a related filing, V domains shown) VH: QIQLVQSGPELKKPGETVKISCKASGYTFRNYGMNWVKQAPGKDLKRMAWINTYTGESTYADDFKGRFAFSLETSASTAYLQINNLKNEDTATYFCARGIYYYGSSYAMDYWGQGTSVTVSS VL: IQMTQTTSSLSASLGDRVTISCRASQDISNCLNWYQQKPDGTVKLLIYYTSRLHSGVPSRFSGSGSGTDYSLTISNLEQEDIATYFCQQGKTLPYAFGGGTKLEINR only.
Result: 1880
